Answer each item with its documented AUC.
Test: AUC in rat at 5 mg/kg, po
Format: ADME, organism-based
Conditions: in vivo

**Q:** Give the value of AUC reported for the following: COc1cccc2c1C(NC[C@]1(c3ccccc3)CC[C@H](NC(=O)OC(C)C)CC1)=NS2(=O)=O
**A:** 1.8 µM·h

**Q:** Look up and report measured AUC for this entry: COc1cccc2c1C(NC[C@]1(c3ccccc3)CC[C@H](O)CC1)=NS2(=O)=O
**A:** 2.7 µM·h

----------
Would you mind telling me the reported inhibition at 10 µM of each entry?
Molecular target: UniProt:P21397
Sequence (P21397 whole entry): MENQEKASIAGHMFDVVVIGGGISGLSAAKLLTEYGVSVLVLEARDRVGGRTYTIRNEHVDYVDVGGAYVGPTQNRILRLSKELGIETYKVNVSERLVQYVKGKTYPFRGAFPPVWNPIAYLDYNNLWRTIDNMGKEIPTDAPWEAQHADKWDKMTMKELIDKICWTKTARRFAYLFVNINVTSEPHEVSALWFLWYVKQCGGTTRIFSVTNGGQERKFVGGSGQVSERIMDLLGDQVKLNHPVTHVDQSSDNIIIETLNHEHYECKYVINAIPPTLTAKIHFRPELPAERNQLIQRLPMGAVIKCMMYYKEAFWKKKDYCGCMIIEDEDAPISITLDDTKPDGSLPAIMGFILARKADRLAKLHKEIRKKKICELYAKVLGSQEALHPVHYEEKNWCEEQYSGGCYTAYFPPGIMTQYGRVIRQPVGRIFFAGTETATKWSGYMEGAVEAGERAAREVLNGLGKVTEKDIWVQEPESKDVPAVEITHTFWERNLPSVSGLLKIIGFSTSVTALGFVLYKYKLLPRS
Test: Inhibition of human MAOA at 10 uM relative to control
Value expressed in %; do not type the unit.

**Q:** Supply measured inhibition at 10 µM of COc1cccc2c1C(NC[C@]1(c3ccccc3)CC[C@H](O)CC1)=NS2(=O)=O in your reply.
**A:** 3

**Q:** Please give the documented inhibition at 10 µM of COc1cccc2c1C(NC[C@]1(c3ccccc3)CC[C@H](NC(=O)OC(C)C)CC1)=NS2(=O)=O
**A:** 10

----------
Exercise: state measured half-life for each of the compounds provided.
Assay: Half life in rat at 2 mg/kg administered as intra-arterial infusion for 10 mins and 5 mg/kg, po
Format: ADME, organism-based
Details: in vivo
Lab book: enter the figure in h, no units written.

**Q:** Could you please provide reported half-life for COc1cccc2c1C(NC[C@]1(c3ccccc3)CC[C@H](NC(=O)OC(C)C)CC1)=NS2(=O)=O ? Thanks!
**A:** 0.9

**Q:** For the compound COc1cccc2c1C(NC[C@]1(c3ccccc3)CC[C@H](O)CC1)=NS2(=O)=O , give its reported half-life.
**A:** 5.1

----------
Would you kindly list remaining at 10 min, 3 µM for each of these molecules?
Assay: Metabolic stability in rat liver microsomes assessed as compound remaining at 3 uM after 10 mins
Type: ADME
Conditions: read-out: Stability
# number only, unit % dropped from output

**Q:** Report remaining at 10 min, 3 µM for COc1cccc2c1C(NC[C@]1(c3ccccc3)CC[C@@H](O)CC1)=NS2(=O)=O
**A:** 73

**Q:** Check the records and state remaining at 10 min, 3 µM for COc1cccc2c1C(NC[C@]1(c3ccccc3)CC[C@H](n3cnnn3)CC1)=NS2(=O)=O
**A:** 19

**Q:** Report remaining at 10 min, 3 µM for COc1cccc2c1C(NC[C@]1(c3ccccc3)CC[C@H](OC(=O)Nc3nnc(C4CC4)s3)CC1)=NS2(=O)=O
**A:** 70

**Q:** State its remaining at 10 min, 3 µM for this molecule: COc1cccc2c1C(NC[C@]1(c3ccccc3)CC[C@H](NC(=O)OC(C)C)CC1)=NS2(=O)=O
**A:** 29

**Q:** Return remaining at 10 min, 3 µM for the following molecule: CCS(=O)(=O)N[C@H]1CC[C@](CNC2=NS(=O)(=O)c3cccc(OC)c32)(c2ccccc2)CC1
**A:** 67

**Q:** Give me measured remaining at 10 min, 3 µM, please, for this molecule: COc1cccc2c1C(NCC(C)(C)c1ccccc1)=NC2=O
**A:** 43

**Q:** Respond only with remaining at 10 min, 3 µM recorded for CCOC(=O)N[C@H]1CC[C@](CNC2=NS(=O)(=O)c3cccc(OC)c32)(c2ccccc2)CC1
**A:** 19

**Q:** Look up and state reported remaining at 10 min, 3 µM for COc1cccc2c1C(NC[C@]1(c3ccccc3)CC[C@H](O)CC1)=NS2(=O)=O
**A:** 68

**Q:** For the molecule COc1cccc2c1C(NC[C@]1(c3ccccc3)CC[C@H](OC(=O)NC3CC3)CC1)=NS2(=O)=O , give its reported remaining at 10 min, 3 µM.
**A:** 5

**Q:** // Input: COc1cccc2onc(NCC(C)(C)c3ccccc3)c12 . Output its remaining at 10 min, 3 µM only.
**A:** 13

**Q:** Please give the documented remaining at 10 min, 3 µM of COc1cccc2c1C(NC[C@]1(c3ccccc3)CC[C@H](NC(=O)OCC(F)(F)F)CC1)=NS2(=O)=O
**A:** 57

----------
Experiment: Oral bioavailability in rat at 3.6 mg/kg
Type: ADME, organism-based
Conditions: in vivo
attributeMeasured: bioavailability (%)
Express the result in % but write the number alone.

**Q:** Specify reported bioavailability for the compound shown: COc1cccc2c1C(NC[C@]1(c3ccccc3)CC[C@H](OC(=O)Nc3nnc(C4CC4)s3)CC1)=NS2(=O)=O
**A:** 1

----------
Target: hERG (KCNH2) (Homo sapiens, UniProt Q12809)
Sequence (Q12809 whole entry): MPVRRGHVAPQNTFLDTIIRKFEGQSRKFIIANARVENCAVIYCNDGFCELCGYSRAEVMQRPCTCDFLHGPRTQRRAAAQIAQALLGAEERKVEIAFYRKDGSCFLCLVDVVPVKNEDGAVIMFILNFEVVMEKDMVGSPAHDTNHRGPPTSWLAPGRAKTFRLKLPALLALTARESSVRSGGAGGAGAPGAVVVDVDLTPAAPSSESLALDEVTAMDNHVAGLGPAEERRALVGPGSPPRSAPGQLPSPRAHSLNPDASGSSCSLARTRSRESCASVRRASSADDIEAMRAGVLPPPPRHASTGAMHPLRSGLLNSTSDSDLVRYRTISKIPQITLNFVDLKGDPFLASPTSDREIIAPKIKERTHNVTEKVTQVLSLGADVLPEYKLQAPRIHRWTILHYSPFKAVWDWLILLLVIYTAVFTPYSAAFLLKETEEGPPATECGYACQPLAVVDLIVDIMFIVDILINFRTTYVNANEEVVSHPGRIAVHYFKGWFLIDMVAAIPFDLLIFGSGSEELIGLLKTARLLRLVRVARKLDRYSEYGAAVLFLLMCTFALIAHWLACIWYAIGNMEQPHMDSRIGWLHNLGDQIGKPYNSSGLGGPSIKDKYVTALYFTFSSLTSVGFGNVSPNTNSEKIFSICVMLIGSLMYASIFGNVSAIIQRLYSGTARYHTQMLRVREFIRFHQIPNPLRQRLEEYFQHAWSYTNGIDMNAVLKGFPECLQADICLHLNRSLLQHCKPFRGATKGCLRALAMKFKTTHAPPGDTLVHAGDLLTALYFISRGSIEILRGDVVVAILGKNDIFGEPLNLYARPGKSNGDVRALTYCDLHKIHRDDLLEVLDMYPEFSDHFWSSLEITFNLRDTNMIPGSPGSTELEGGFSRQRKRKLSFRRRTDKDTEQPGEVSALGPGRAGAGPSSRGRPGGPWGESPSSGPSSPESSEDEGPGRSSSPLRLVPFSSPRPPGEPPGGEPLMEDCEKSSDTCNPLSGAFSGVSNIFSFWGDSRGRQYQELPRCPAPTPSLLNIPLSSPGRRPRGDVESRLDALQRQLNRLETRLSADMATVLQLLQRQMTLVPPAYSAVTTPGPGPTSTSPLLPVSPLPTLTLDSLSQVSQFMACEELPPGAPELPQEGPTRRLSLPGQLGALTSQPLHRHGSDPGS
Assay: Inhibition of human ERG at 10 uM relative to control
For each record, write down the corresponding inhibition at 10 µM.
Record the value in %, omitting the unit from your answer.

**Q:** Report inhibition at 10 µM, nothing else, for this compound: COc1cccc2c1C(NC[C@]1(c3ccccc3)CC[C@H](OC(=O)Nc3nnc(C4CC4)s3)CC1)=NS2(=O)=O
**A:** 17

**Q:** Dear colleague, please send me the reported inhibition at 10 µM for COc1cccc2c1C(NC[C@]1(c3ccccc3)CC[C@H](NC(=O)OCC(F)(F)F)CC1)=NS2(=O)=O when you can.
**A:** 47

**Q:** Fill in reported inhibition at 10 µM for this entry: COc1cccc2c1C(NC[C@]1(c3ccccc3)CC[C@H](O)CC1)=NS2(=O)=O
**A:** 54

**Q:** Please report the measured inhibition at 10 µM for CCS(=O)(=O)N[C@H]1CC[C@](CNC2=NS(=O)(=O)c3cccc(OC)c32)(c2ccccc2)CC1
**A:** 59

**Q:** Given COc1cccc2c1C(NC[C@]1(c3ccccc3)CC[C@H](NC(=O)OC(C)C)CC1)=NS2(=O)=O , respond with its inhibition at 10 µM.
**A:** 68

----------
Target: Potassium voltage-gated channel subfamily A member 5 (Homo sapiens)
Sequence (P22460 whole entry): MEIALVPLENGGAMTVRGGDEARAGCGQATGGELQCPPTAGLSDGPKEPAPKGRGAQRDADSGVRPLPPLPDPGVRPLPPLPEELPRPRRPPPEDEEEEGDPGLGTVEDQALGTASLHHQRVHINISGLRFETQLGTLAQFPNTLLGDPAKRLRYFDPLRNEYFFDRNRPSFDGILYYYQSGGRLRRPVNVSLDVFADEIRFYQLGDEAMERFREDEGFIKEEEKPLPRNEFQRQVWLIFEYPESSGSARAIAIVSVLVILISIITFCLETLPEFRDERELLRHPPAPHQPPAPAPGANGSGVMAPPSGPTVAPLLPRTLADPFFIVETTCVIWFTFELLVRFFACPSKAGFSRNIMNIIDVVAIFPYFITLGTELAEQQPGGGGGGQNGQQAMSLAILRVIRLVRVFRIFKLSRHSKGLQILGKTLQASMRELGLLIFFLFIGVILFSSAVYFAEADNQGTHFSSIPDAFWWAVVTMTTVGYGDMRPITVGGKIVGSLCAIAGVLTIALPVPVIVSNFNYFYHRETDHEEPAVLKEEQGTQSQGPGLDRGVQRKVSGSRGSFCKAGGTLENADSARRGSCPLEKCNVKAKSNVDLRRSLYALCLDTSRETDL
Test: Inhibition of human KV1.5 expressed in mouse L929 cells assessed as decrease in ultrarapid potassium current amplitude
Kindly state pIC50 for each of the entries shown.
Note on units: pIC50 is unitless, being -log10 of a concentration expressed in mol/L.

**Q:** Complete the entry with pIC50 for COc1cccc2c1C(NCC(C)(C)c1ccccc1)=NC2=O
**A:** 7.47

**Q:** Provide only the value of recorded pIC50 for CCNC(=O)O[C@H]1CC[C@](CNC2=NS(=O)(=O)c3cccc(OC)c32)(c2ccccc2)CC1
**A:** 7.19

**Q:** Give pIC50 for the following compound: COc1cccc2c1C(NC[C@]1(c3ccccc3)CC[C@H](NC(=O)OCC(F)(F)F)CC1)=NS2(=O)=O
**A:** 7.55

**Q:** Please report pIC50 for the following compound: COc1cccc2c1C(NC[C@]1(c3ccccc3)CC[C@H](OC(=O)Nc3ccc(N(C)C)cc3)CC1)=NS2(=O)=O
**A:** 7.52

----------
Hi there, I'd appreciate the recorded inhibition for every entry that follows.
Species: Homo sapiens
Assay: Inhibition of calcium channel (unknown origin) at 10 uM relative to control
Respond with the bare value in %.

**Q:** Entry CCS(=O)(=O)N[C@H]1CC[C@](CNC2=NS(=O)(=O)c3cccc(OC)c32)(c2ccccc2)CC1 needs its inhibition filled in; supply it.
**A:** 14

**Q:** Tell me its inhibition given COc1cccc2c1C(NC[C@]1(c3ccccc3)CC[C@H](NC(=O)OC(C)C)CC1)=NS2(=O)=O as the entry.
**A:** 41

**Q:** Determine from records and report inhibition for COc1cccc2c1C(NC[C@]1(c3ccccc3)CC[C@H](OC(=O)Nc3nnc(C4CC4)s3)CC1)=NS2(=O)=O
**A:** 8

**Q:** Assign inhibition to the following record: COc1cccc2c1C(NC[C@]1(c3ccccc3)CC[C@H](O)CC1)=NS2(=O)=O
**A:** 14

**Q:** Supply reported inhibition belonging to this compound: COc1cccc2c1C(NC[C@]1(c3ccccc3)CC[C@H](NC(=O)OCC(F)(F)F)CC1)=NS2(=O)=O
**A:** 51

----------
Assay: Cmax in rat at 1.6 mg/kg administered as intra-arterial infusion for 10 mins and 3.6 mg/kg, po
Assay type: ADME, organism-based
Design: route oral
Settings: in vivo
attributeMeasured: Cmax (nM)
The reply should contain only the number, in nM.

**Q:** Return the recorded Cmax value; entry: COc1cccc2c1C(NC[C@]1(c3ccccc3)CC[C@H](OC(=O)Nc3nnc(C4CC4)s3)CC1)=NS2(=O)=O
**A:** 11

----------
Could you please report measured remaining at 10 min, 3 µM for the items listed next?
Assay: Metabolic stability in mouse liver microsomes assessed as compound remaining at 3 uM after 10 mins
Assay type: ADME
Settings: read-out: Stability

**Q:** Please indicate remaining at 10 min, 3 µM recorded for COc1cccc2onc(NCC(C)(C)c3ccccc3)c12
**A:** 11%

**Q:** Report measured remaining at 10 min, 3 µM; entry is COc1cccc2c1C(NC[C@]1(c3ccccc3)CC[C@H](OC(=O)Nc3nnc(C4CC4)s3)CC1)=NS2(=O)=O
**A:** 66%

**Q:** Given the compound COc1cccc2c1C(NC[C@]1(c3ccccc3)CC[C@H](OC(=O)NCCC(F)(F)F)CC1)=NS2(=O)=O , write its reported remaining at 10 min, 3 µM.
**A:** 3%

**Q:** In one line, give reported remaining at 10 min, 3 µM of the entry COc1cccc2c1C(NC[C@]1(c3ccccc3)CC[C@H](OC(=O)Nc3ccc(N(C)C)cc3)CC1)=NS2(=O)=O .
**A:** < 1%
